# EXPERIMENT NOTES: CCTE_Shafer_MEA_acute_firing_rate_mean: CCTE's Neural Acute Assay for Mean Firing Rate, Shafer Lab (AID 2284009);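 further: analyzed for loss of signal so actives lower firing rate relative to DMSO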
Calls of active or inactive are those of the source. How the source made its calls: active means hit-call score of the fitted dose curve at least 0.9, where 1 is the maximum; inactive means score below 0.9.
Respond only with the outcome that fits, drawn from active, inactive

Use the examples below as a reference point.
O=C(O)c1cc(N=Nc2ccc(S(=O)(=O)Nc3ccccn3)cc2)ccc1O	active
CCC(C)(C)C(=O)O[C@H]1C[C@@H](C)C=C2C=C[C@H](C)[C@H](CC[C@@H]3C[C@@H](O)CC(=O)O3)[C@H]21	inactive
COc1ccc2sc(C(=O)Nc3nnn[nH]3)c(OC(C)C)c2c1	inactive
CCCCC(CC)COC(=O)CCCCCCCCC(=O)OCC(CC)CCCC (stereo unspecified)	inactive
CC(C)=CCCC(C)=CC=O	inactive

Recorded test outcome, item COc1cccc(-c2ccc(/C=C\CN3CCCCCC3)cc2Cl)c1
active

Next record, please: Cn1cnc([N+](=O)[O-])c1Sc1ncnc2nc[nH]c12
inactive

Next record, please: CCCCCCc1ccc(O)cc1O
active

Next record, please: CCCN(C1CCN(C(=O)C2CCNCC2)CC1)[C@@H]1CCc2ccc(OC)cc2C1
inactive

Next record, please: CCCCCCCCCCCCc1ccccc1
inactive

Next record, please: Cc1[nH]cnc1C[C@H]1CCc2c(C)c3ccccc3n2C1=O
active

---

# Read-out: Early growth response protein 1 (EGR1) transcription factor, EGR1 (gene 1958)
# EXPERIMENT NOTES: LTEA_HepaRG_EGR1: Life Technologies and Expression Analysis (LTEA) Assay for Early growth response protein 1 (EGR1) transcription factor using HepaRG (AID 2283490)
# CONDITION SUMMARY: mRNA level, 48 h; actives raise or lower the signal
The source made the active and inactive calls. Rule for the calls: active = hit-call score of the fitted dose curve at least 0.9, where 1 is the maximum; inactive = score below 0.9.
Respond only with the outcome that fits, drawn from active, inactive

CC(C)=CCC/C(C)=C\CO	inactive
COC(=O)c1c(Cl)c(Cl)c(C(=O)OC)c(Cl)c1Cl	inactive
CCCCCCc1ccc(O)cc1O	inactive
CC(C)=CCC/C(C)=C/CO	inactive
CC1=CC(=O)CC(C)(C)C1	inactive
CC(=O)OC[C@H]1O[C@@](COC(C)=O)(O[C@H]2O[C@H](COC(C)=O)[C@@H](OC(C)=O)[C@H](OC(C)=O)[C@H]2OC(C)=O)[C@@H](OC(C)=O)[C@@H]1OC(C)=O	inactive

Recorded test outcome, item CCc1cc(SCc2sc(-c3ccc(C(F)(F)F)cc3)nc2CN2CCN(c3ccc(OC)cc3)CC2)ccc1OCC(=O)O
active

---

# Read-out: E-selectin (Homo sapiens) (UniProt P16581)
# Sequence (P16581 whole entry, looked up): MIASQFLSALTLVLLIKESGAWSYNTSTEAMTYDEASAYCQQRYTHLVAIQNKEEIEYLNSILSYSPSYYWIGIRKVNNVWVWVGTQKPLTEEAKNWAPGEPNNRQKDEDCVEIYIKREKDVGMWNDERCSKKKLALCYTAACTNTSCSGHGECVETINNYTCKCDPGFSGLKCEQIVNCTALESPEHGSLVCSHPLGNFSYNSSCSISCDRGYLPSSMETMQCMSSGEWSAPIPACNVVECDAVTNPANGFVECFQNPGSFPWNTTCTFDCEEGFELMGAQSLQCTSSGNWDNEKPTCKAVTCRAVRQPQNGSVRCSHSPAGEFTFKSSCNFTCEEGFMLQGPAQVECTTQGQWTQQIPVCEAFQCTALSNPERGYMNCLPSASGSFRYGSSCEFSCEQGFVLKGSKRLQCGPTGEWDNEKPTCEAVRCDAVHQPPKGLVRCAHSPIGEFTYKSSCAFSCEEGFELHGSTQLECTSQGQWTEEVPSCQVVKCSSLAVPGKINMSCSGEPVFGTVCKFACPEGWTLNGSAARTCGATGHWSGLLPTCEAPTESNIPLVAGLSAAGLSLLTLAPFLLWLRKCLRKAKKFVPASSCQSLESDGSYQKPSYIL
# EXPERIMENT NOTES: BSK_SAg_Eselectin: BioMAP Diversity Plus: SAg Assay for Eselectin Biomarker Activity (AID 2283091)
# CONDITION SUMMARY: primary human HUVEC with PBMC; actives raise or lower the signal
Activity calls are given as the source filed them. How the source made its calls: active means hit-call score of the fitted dose curve at least 0.9, where 1 is the maximum; inactive means score below 0.9.
Respond only with the outcome that fits, drawn from active, inactive

Use the examples below as a reference point.
Cn1c(=O)cc(Oc2ccc(F)cc2F)c2cnc(NCC(C)(C)O)nc21	inactive
CC(C)(O)c1coc(S(=O)(=O)NC(=O)Nc2c3c(cc4c2CCC4)CCC3)c1	inactive
COc1ccc2sc(C(=O)Nc3nnn[nH]3)c(OC(C)C)c2c1	active
CCOC(=O)CC(CC(=O)OCC)(OC(C)=O)C(=O)OCC	inactive
O=C1CCC(N2C(=O)c3ccccc3C2=O)C(=O)N1 (stereo not drawn)	inactive

In the following, a different compound is considered.
Recorded test outcome, item CCN(C(=O)c1cc(C)cc(OC[C@H](C)Nc2ccncc2)c1)C(C)C
inactive

---

# Read-out: Forkhead box O3 (FOXO3), FOXO3 (gene 2309)
# EXPERIMENT NOTES: LTEA_HepaRG_FOXO3: Life Technologies and Expression Analysis (LTEA) Assay for Forkhead box O3 (FOXO3) using HepaRG (AID 2283459)
# CONDITION SUMMARY: mRNA level, 48 h; actives raise or lower the signal
The source made the active and inactive calls. How the source made its calls: active means hit-call score of the fitted dose curve at least 0.9, where 1 is the maximum; inactive means score below 0.9.
Respond only with the outcome that fits, drawn from active, inactive

Recorded test outcome, item O=P(OC(CCl)CCl)(OC(CCl)CCl)OC(CCl)CCl
inactive

Next record, please: CNS(=O)(=O)c1cc(C(=O)N2CCC(CCN3C4CCC3CC(n3c(C)nc5ccccc53)C4)(c3cccc(F)c3)CC2)c(Cl)cc1F (stereo unspecified)
inactive

Next record, please: Nc1cccc(N)c1
inactive

Next record, please: CN(C)c1ccc(Cc2ccc(N(C)C)cc2)cc1
inactive

Next record, please: O=C(O)c1cc(N=Nc2ccc(S(=O)(=O)Nc3ccccn3)cc2)ccc1O
inactive

Next record, please: COC(=O)c1ccccc1O
inactive

Next record, please: CCCN(C1CCN(C(=O)C2CCNCC2)CC1)[C@@H]1CCc2ccc(OC)cc2C1
active

---

# Read-out: CYP4A11 (gene 1579)
# EXPERIMENT NOTES: LTEA_HepaRG_CYP4A11: Life Technologies and Expression Analysis (LTEA) Assay for CYP4A11 using HepaRG (AID 2283486)
# CONDITION SUMMARY: mRNA level, 48 h; actives raise or lower the signal
Activity calls are given as the source filed them. The calls were made as follows: active = hit-call score of the fitted dose curve at least 0.9, where 1 is the maximum; inactive = score below 0.9.
Respond only with the outcome that fits, drawn from active, inactive

Recorded test outcome, item Fc1ccccc1[C@@H](F)COC1CCC(Nc2ncnc3[nH]ncc23)CC1 (stereo partly drawn)
active

Next record, please: Cn1c(=O)c2c(ncn2C)n(C)c1=O
inactive

Next record, please: CCCCCCc1ccc(O)cc1O
inactive

Next record, please: COCCOc1cc2cc(C(=O)NC3CCN(C(C)C)CC3)n(CC(=O)Nc3ccc(Cl)cn3)c2cn1
active

Next record, please: O=C(O)CC(O)C(=O)O (stereo not drawn)
inactive

Next record, please: CC(=O)OCCC(C)C
inactive

Next record, please: CC(C)CCO
inactive

Next record, please: Nc1cccc(N)c1
inactive

Next record, please: CCOc1cccc(-n2cc(C(=O)N3CCN(c4cc(C(=O)O)c5ccccc5c4)CC3)nc2-c2ccc(C)cc2)c1
active

---

# Read-out: ABC Transporter (ABCC3), ABCC3 (gene 8714)
# EXPERIMENT NOTES: LTEA_HepaRG_ABCC3: Life Technologies and Expression Analysis (LTEA) Assay for ABC Transporter (ABCC3) using HepaRG (AID 2283462)
# CONDITION SUMMARY: mRNA level, 48 h; actives raise or lower the signal
Activity calls are given as the source filed them. The calls were made as follows: active = hit-call score of the fitted dose curve at least 0.9, where 1 is the maximum; inactive = score below 0.9.
EXPERIMENTAL READOUT: AC50

Use these answered entries as a reference point.
CCCCCCc1ccc(O)cc1O	inactive
Cn1cnc([N+](=O)[O-])c1Sc1ncnc2nc[nH]c12	inactive
O=C(NS(=O)(=O)/C=C/c1ccccc1)c1ccc(F)cc1Cl	inactive
COCCOc1cc2cc(C(=O)NC3CCN(C(C)C)CC3)n(CC(=O)Nc3ccc(Cl)cn3)c2cn1	45 µM (active)
CCn1nc(Cc2ccccc2)cc1C1CCN(C[C@H]2C[C@H](N(C)[C@@H](C(=O)O)C(C)C)C[C@@H]2c2cccc(F)c2)CC1	50 µM (active)

# evaluate next
Return reported AC50; argument: O=C(O)CC(O)C(=O)O (stereo not given)
inactive

---

# MEASURED ON: human Muscarinic, M4 Receptor, CHRM4 (gene 1132)
# EXPERIMENT NOTES: NVS_GPCR_hM4: NovaScreen (NVS) G Protein-Coupled Receptor Assay for human Muscarinic, M4 Receptor (AID 2283274)
Inconclusive results are not listed. Calls of active or inactive are those of the source. The calls were made as follows: active = hit-call score of the fitted dose curve at least 0.9, where 1 is the maximum; inconclusive = response in the unintended direction; inactive = score below 0.9.
Respond only with the outcome that fits, drawn from 1.0 = active, 0.0 = inactive

Use the examples below as a reference point.
Nc1ccc(Nc2ccccc2)cc1	1.0
Cc1[nH]cnc1C[C@H]1CCc2c(C)c3ccccc3n2C1=O	0.0
CCOC(=O)COc1ccc2c(c1)CC(NCC(O)c1cccc(Cl)c1)CC2 (stereo not given)	1.0

Recorded test outcome, item CCc1cc(SCc2sc(-c3ccc(C(F)(F)F)cc3)nc2CN2CCN(c3ccc(OC)cc3)CC2)ccc1OCC(=O)O
1.0

Next record, please: CCOc1cccc(-n2cc(C(=O)N3CCN(c4cc(C(=O)O)c5ccccc5c4)CC3)nc2-c2ccc(C)cc2)c1
1.0

---

# EXPERIMENT NOTES: ATG_PXRE_CIS: Attagene CIS-FACTORIAL HepG2 Assay for human Pregnane X Receptor Element (PXRE) (AID 2282957)
# CONDITION SUMMARY: HepG2 Attagene CIS-FACTORIAL PXRE reporter, mRNA; actives raise or lower the signal
Active and inactive are the calls of the source. How the source made its calls: active means hit-call score of the fitted dose curve at least 0.9, where 1 is the maximum; inactive means score below 0.9.
Respond only with the outcome that fits, drawn from active, inactive

Use the examples below as a reference point.
CCCCC(CC)COC(=O)c1ccc(C(=O)OCC(CC)CCCC)cc1 (configuration not stated)	active
COCCOCCOCCOC	inactive
Oc1ccc2c(c1)-c1ccccc1C2	inactive

Recorded test outcome, item COCCOc1cc2cc(C(=O)NC3CCN(C(C)C)CC3)n(CC(=O)Nc3ccc(Cl)cn3)c2cn1
active

Next record, please: CC[C@H]1CC[C@H](NCc2cc3c(cc2OC)[C@H]2C[C@H]2C(=O)N3C)[C@H](c2ccccc2)N1
active

Next record, please: COc1ccc(/C=C/S(=O)(=O)NC(=O)c2ccc(C)cc2Cl)cc1
inactive

Next record, please: Clc1nc(Cl)c(Cl)c(Cl)c1Cl
inactive

Ref: PubChem BioAssay (EPA / NIEHS)
